Assay: Metabolic stability in Sprague-Dawley rat frontal cortex assessed as drug remaining at 30 MBq after 0.25 hrs by Radio-HPLC analysis
Format: ADME, tissue-based
Conditions: read-out: Stability
Item-by-item account of remaining at 0.25 h
The reply should contain only the number, in %.

CCN(CC)C(=O)Cc1c(-c2ccc(OCCC[18F])cc2)nc2ccc(Cl)cn12 55

(Q) Which remaining at 0.25 h is reported for this molecule? CCN(CC)C(=O)Cc1c(-c2ccc(OCC[18F])cc2)nc2ccc(Cl)cn12
(A) 55

(Q) Okay, and CCN(CC)C(=O)Cc1c(-c2ccc(OCCC[18F])cc2)nn2c(C)cc(C)nc12 ?
(A) 55

(Q) Moving on to CCN(CC)C(=O)Cc1c(-c2ccc(OCC[18F])cc2)nn2c(C)cc(C)nc12
(A) 55
